Reference source: ChEMBL document CHEMBL4251705

- Study system: Bromodomain-containing protein 4 (Homo sapiens)
- Method notes: Inhibition of human His6-tagged BRD4 BD1 (N44 to E168 residues) expressed in Escherichia coli BL21 (DE3) cells using H-SGRGK(Ac)GGK(Ac)GLGK(Ac)GGAK(Ac)RHRK-Biotin-OH as substrate after 2.5 hrs by AlphaScreen assay
- Cond: read-out: IC50
Experimental readout: IC50 (µM)
API: value field is a number in µM; no unit string.

Suppose we examine the compound CCCCS(=O)(=O)Nc1ccc2c(c1)OC(C)(C)C(=O)N2 ; what IC50 value has been reported?
11.9

Given the entry CC1(C)Oc2cc(NS(=O)(=O)c3ccc(F)cc3)ccc2NC1=O , report its measured IC50.
4.79

IC50 for COc1ccc(Br)cc1S(=O)(=O)Nc1cc2c(cc1N(C)C)NC(=O)C(C)(C)O2 ?
4.77

Look up IC50: COc1ccc(Br)cc1S(=O)(=O)Nc1ccc2c(c1)OC(C)(C)C(=O)N2
1.99
